Each recorded value in this set is attributed to ChEMBL document CHEMBL4732059.

# method summary: AUC (0 to t) in C57BL/6J mouse at 20 mg/kg, po measured upto 24 hrs by LC-MS analysis
# Assay type: ADME, organism-based
# Parameters: route oral, dose 20 mg/kg, time <=24
# run parameters: in vivo
endpoint label: AUC(0-t) at 24 h
Put your answer as a value accompanied by its unit after it.

Data point: O=C(O)c1cccc(NC(=O)N2CCC(OCc3c(-c4ccccc4OC(F)(F)F)noc3C3CC3)CC2)c1 ; AUC(0-t) at 24 h = 36100 ng·h/mL

###

# method summary: Cmax in C57BL/6J mouse at 20 mg/kg, po measured upto 24 hrs by LC-MS analysis
# Type: ADME, organism-based
# Parameters: route oral, dose 20 mg/kg, time <=24
# run parameters: in vivo
endpoint label: Cmax (ng/mL)
Output spec: scalar in ng/mL, unitless text.

The reported value for O=C(O)c1cccc(NC(=O)N2CCC(OCc3c(-c4ccccc4OC(F)(F)F)noc3C3CC3)CC2)c1 in terms of Cmax is 2350
